Target: BRN2 (Homo sapiens, UniProt P20265)
Sequence (P20265 1-443): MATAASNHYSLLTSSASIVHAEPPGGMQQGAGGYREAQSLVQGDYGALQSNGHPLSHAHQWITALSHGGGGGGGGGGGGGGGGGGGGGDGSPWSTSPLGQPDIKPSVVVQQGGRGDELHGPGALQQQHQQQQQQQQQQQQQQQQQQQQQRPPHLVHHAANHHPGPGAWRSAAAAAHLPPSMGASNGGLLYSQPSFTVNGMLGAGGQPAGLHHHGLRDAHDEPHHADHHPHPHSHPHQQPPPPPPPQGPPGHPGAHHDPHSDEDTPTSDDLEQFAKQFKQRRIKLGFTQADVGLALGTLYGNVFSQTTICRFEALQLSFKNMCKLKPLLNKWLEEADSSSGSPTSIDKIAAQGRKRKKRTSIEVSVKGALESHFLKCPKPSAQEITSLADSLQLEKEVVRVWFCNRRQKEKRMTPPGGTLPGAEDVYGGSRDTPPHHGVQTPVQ
Test: cell-based
Settings: read-out: % BRN2 Inhibition (30 μM), 30 μM compound, 24 hours, 42D^ENZR cells stably expressing BRN2-luciferase reporter; negative = activation
Please go through the items and note down their inhibition at 30 µM.

Query string: Give the value of inhibition at 30 µM reported for the following: FC(F)(F)c1ccc2cc(-c3csc(-c4ccoc4)n3)oc2c1 [VPC-18-104]
Result string: 94.2%

Query string: // Input: Clc1ccc2cc(-c3csc(-c4cc[nH]c4)n3)oc2c1 [VPC-18-115] . Output its inhibition at 30 µM only.
Result string: 99%

Query string: Return reported inhibition at 30 µM. Input compound: FC(F)(F)n1c(-c2ccc(-c3ccccc3)o2)nc2ccccc21 [VPC-18-103]
Result string: 95.3%

Query string: Identify measured inhibition at 30 µM corresponding to Clc1ccc2nc(-c3csc(-c4ccco4)n3)oc2c1 [VPC-18-107]
Result string: 66.9%

Query string: Indicate its recorded inhibition at 30 µM; the compound in question is Clc1ccc2cc(-c3csc(-c4ccoc4)n3)oc2c1 [VPC-18-105]
Result string: 92%

###

Target: BRN2 (Homo sapiens, UniProt P20265)
Assay: cell-based
Details: read-out: % BRN2 Inhibition (30 μM), 30 μM compound, 24 hours, 42D^ENZR cells stably expressing BRN2-luciferase reporter; negative = activation
outcomeMeasure: inhibition at 30 µM (%)
Give the value, in units of %, as a plain number.

Query string: State, in one line, measured inhibition at 30 µM of FC(F)(F)c1ccc2cc(-c3csc(-c4ccc[nH]4)n3)oc2c1 [VPC-18-108]
Result string: 92.6

Query string: Please give the documented inhibition at 30 µM of Cn1c(-c2ccc(-c3ccc(F)cc3F)o2)nc2ccccc21 [VPC-18-41]
Result string: 91.1

Query string: Find the measured inhibition at 30 µM of Clc1ccc2cc(-c3csc(-c4ccn[nH]4)n3)oc2c1 [VPC-18-96] and report it.
Result string: 92.5

Query string: Tell us which inhibition at 30 µM value is on record for c1coc(-c2ncc(-c3cc4ccccc4o3)s2)c1 [VPC-18-90]
Result string: 92

Query string: Output inhibition at 30 µM of Cn1c(-c2ccc(-c3ccc(F)cc3F)o2)nc2ccc(C(F)(F)F)cc21 [VPC-18-69]
Result string: 12

Query string: Give the reported inhibition at 30 µM for this compound. Cc1c(-c2ccc(-c3ccccc3)o2)oc2ccccc12 [VPC-18-74]
Result string: 99

Query string: State its inhibition at 30 µM: Clc1ccc2cc(-c3csc(-c4ccco4)n3)oc2c1 [VPC-18-66]
Result string: 94

Query string: Return inhibition at 30 µM (reported value) for this compound: O=[N+]([O-])c1ccc2cc(-c3csc(-c4ccco4)n3)oc2c1 [VPC-18-52]
Result string: -46

Query string: Given N#Cc1ccc2cc(-c3csc(-c4ccco4)n3)oc2c1 [VPC-18-80] , respond with its inhibition at 30 µM.
Result string: 44

Query string: For the compound Clc1ccc2cc(-c3coc(-c4ccco4)n3)oc2c1 [VPC-18-121] , give its measured inhibition at 30 µM value.
Result string: 93.5

Query string: Retrieve inhibition at 30 µM measured for FC(F)(F)c1ccc2cc(-c3csc(N4CCOCC4)n3)oc2c1 [VPC-18-78] and print it.
Result string: 79.6

Query string: Let me know recorded inhibition at 30 µM for Cn1c(-c2ccc(-c3ccccc3F)o2)nc2ccc(C(F)(F)F)cc21 [VPC-18-65] , thanks.
Result string: -3

Query string: Report measured inhibition at 30 µM; entry is Cc1ccc2cc(-c3csc(-c4ccco4)n3)oc2c1 [VPC-18-110]
Result string: 98.6

Query string: Give inhibition at 30 µM for Clc1ccc2nc(-c3ccc(-c4ccccc4)o3)[nH]c2c1 [VPC-18-92]
Result string: 98.4

Query string: Complete the entry with inhibition at 30 µM for c1ccc2c(c1)CCC2c1ccc(-c2nc3ccccc3s2)o1 (stereo not shown) [VPC-7-44]
Result string: 93

Query string: Identify measured inhibition at 30 µM associated with Oc1ccc2cc(-c3csc(-c4ccco4)n3)oc2c1 [VPC-18-113]
Result string: 94
